Reference source: patent US20160052918A1

- assay_procedure: Solubility remarks of Table 2
- Assay type: physicochemical
- assay_setup: Table 2 remark
assay_readout: Remarks: solubility

INSERT INTO assay_data (compound, result) VALUES
  ('C=CCOc1ccc2c(-c3cc4ccccc4oc3=O)cc(=O)oc2c1CN(CCOC)CCOC [RT-021]', 'Insoluble'),
  ('C#CCOc1ccc2c(-c3cc4ccccc4oc3=O)cc(=O)oc2c1CN(CCOC)CCOC [RT-017]', 'Insoluble');
